- MEASURED TARGET: full-length beta-Catenin (Uniprot ID P35222) (Homo sapiens (Human)) (UniProt P35222)
- Sequence (P35222 whole entry): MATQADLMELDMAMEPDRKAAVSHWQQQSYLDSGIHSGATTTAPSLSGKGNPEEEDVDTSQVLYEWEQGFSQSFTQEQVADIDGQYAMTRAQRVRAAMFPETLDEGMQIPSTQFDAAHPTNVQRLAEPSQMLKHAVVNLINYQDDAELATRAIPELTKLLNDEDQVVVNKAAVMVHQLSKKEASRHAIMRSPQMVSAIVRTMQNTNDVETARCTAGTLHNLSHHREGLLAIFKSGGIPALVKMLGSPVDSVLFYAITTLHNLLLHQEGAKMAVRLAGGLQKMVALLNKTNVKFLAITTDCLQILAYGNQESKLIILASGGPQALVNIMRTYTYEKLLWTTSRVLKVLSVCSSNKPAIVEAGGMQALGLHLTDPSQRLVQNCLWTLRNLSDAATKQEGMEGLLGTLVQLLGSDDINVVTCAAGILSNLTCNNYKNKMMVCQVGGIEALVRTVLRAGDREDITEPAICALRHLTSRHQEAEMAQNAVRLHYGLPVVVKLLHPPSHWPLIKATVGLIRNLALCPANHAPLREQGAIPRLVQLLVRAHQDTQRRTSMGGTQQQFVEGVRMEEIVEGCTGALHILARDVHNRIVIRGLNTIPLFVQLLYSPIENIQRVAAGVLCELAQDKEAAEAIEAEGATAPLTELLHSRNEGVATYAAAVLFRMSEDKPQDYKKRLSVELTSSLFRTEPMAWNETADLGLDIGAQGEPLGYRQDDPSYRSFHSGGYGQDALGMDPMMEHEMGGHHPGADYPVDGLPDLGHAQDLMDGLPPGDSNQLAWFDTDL
- EXPERIMENTAL PROTOCOL: fluorescence polarization competition; competitor 5FAM-TCF4 10-53
Starred links: 1 amine or outer side, 2 acyl side, 3 side chain; linkers in the order of their positions; H or OH if unused. Positions of bridges follow the written chain, without caps; N, C: chain ends. Non-standard residues stand in square brackets, D forms with d. Primed or numbered codes have the meaning given here. B5(4) = 2,2-bis(4-pentenyl)glycine = 2-amino-2-(pent-4-en-1-yl)hept-6-enoic acid (stitching residue), C=CCCCC(CCCC=C)(N[*:1])C(=O)[*:2]; TfeGA = (S)-2-amino-3-((carboxymethyl)(2,2,2-trifluoroethyl)amino)propanoic acid, O=C([C@H](CN(CC(=O)[*:3])CC(F)(F)F)N[*:1])[*:2]; PyrS2 = (S)-3-amino-1-((pent-4-en-1-yloxy)carbonyl)pyrrolidine-3-carboxylic acid, C=CCCCOC(=O)N1CC[C@@](N[*:1])(C(=O)[*:2])C1; PyrS2(5) = (S)-3-amino-1-((alkenyloxy)carbonyl)pyrrolidine-3-carboxylic acid, carbamate stapling residue; B5 = 2-amino-2-(pent-4-en-1-yl)hept-6-enoic acid, C=CCCCC(CCCC=C)(N[*:1])C(=O)[*:2]; Phe(3-COOH) = N[C@@H](Cc1cccc(C(=O)O)c1)C(=O)O; Phe(2-Cl) = N[C@@H](Cc1ccccc1Cl)C(=O)O; Bta = N[C@@H](Cc1csc2ccccc12)C(=O)O; αAllylPro = C=CC[C@@]1(C(=O)O)CCCN1; tBuAla = CC(C)(C)C[C@H](N)C(=O)O; Aib = CC(C)(N)C(=O)O
TEST READOUT: IC50 (nM)

• Ac-[αAllylPro]D[tBuAla][B5]D[TfeGA][Aib]GFT[PyrS2][Phe(2-Cl)][Bta]Q-NH2 (staple 1-4, 4-11) [I-1696] = 32

[A] Ac-[αAllylPro]D[tBuAla][B5]D[Phe(3-COOH)][Aib]GFL[PyrS2][Phe(2-Cl)][Bta]Q-NH2 (staple 1-4, 4-11) [I-1689]
[B] Ac-[αAllylPro]D[tBuAla][B5(4)]D[Phe(3-COOH)]AGFL[PyrS2(5)][Phe(2-Cl)][Bta]Q-NH2 (staple 1-4, 4-11) [I-1687]
Problem: Smaller IC50 value? Options are A and B Refer to your chosen entry by its label in the reply.
Result: A
(A: 25.5 nM, B: 42 nM)

Reference source: patent US20240116985A1
